Can you tell me EMax, OVCAR 5 cells (cAMP) for the items I'm about to list?
# Measured Target: T1, RXFP1 receptor (UniProt Q9HBX9 1-757, limits assumed)
# T1 sequence (looked up): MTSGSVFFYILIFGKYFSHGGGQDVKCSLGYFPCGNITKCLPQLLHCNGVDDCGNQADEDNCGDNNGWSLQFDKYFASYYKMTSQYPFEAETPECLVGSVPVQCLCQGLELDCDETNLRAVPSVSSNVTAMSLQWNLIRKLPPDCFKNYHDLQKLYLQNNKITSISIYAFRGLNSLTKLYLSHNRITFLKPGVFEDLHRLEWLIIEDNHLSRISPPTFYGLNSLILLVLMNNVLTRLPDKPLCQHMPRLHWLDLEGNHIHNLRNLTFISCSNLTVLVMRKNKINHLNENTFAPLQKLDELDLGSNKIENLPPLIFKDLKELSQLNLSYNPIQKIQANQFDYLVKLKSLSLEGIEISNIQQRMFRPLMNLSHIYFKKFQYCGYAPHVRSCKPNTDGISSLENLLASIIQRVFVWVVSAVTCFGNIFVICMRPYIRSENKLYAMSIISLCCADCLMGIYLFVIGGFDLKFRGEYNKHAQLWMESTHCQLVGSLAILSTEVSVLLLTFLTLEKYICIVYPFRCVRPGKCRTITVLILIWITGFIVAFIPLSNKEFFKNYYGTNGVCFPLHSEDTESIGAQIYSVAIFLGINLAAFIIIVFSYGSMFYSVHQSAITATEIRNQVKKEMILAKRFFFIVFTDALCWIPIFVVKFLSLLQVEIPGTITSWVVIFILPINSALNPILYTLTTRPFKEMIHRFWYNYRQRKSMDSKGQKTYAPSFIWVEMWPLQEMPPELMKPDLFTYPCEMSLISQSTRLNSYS
# Experiment Summary: cell-based or functional assay
*1 amine or outer side, *2 acyl side, *3 side chain or, on linkers, in order; H or OH if unused. Primed or numbered codes have the meaning given here. Side-chain parts run from the residue outwards. [ ]: non-standard residue; d: D form. The star is where a group is joined. PEG12 = NCCOCCOCCOCCOCCOCCOCCOCCOCCOCCOCCOCCOCCC(=O)O; γGlu = O=C(O)[C@H](CCC(=O)[*:2])N[*:1]; Stearoyl = CCCCCCCCCCCCCCCCCC(=O)*; Palmitoyl = CCCCCCCCCCCCCCCC(=O)*; αMeK = C[C@](N)(CCCCN)C(=O)O; Nle = CCCC[C@H](N)C(=O)O; PEG2′ = PEG2 spacer unit; PEG2″ = not defined here; Aib = CC(C)(N)C(=O)O
Quick reminder: number only, in %, skip the unit.

Input: Consider the binder Ac-LEGREKVRAK(Ac)I[Aib][Aib]EG[Nle]STFSXRKK(Ac)[PEG2′][PEG2′][PEG2′][PEG2′][γGlu][γGlu][γGlu]K([γGlu-Palmitoyl])-NH2 (not fully specified (some residues); printed as Ac-L-E-G-R-E-K-V-R-A-K(Ac)-I-Aib-Aib-E-G-Nle-S-T-F-S-Mly-R-K-K(Ac)-PEG2-PEG2-PEG2-PEG2-gE-gE-gE-K(gE-Palm)-NH2) [peptide of SEQ ID NO: 145] . State its measured EMax, OVCAR 5 cells (cAMP).
Output: 99

Input: Consider the binder Ac-LEGREKVRAK(Ac)I[Aib][Aib]EG[Nle]STFS[αMeK]RAK(Ac)[PEG2″][PEG2″][PEG2″][PEG2″][γGlu][γGlu][γGlu]K([γGlu-Palmitoyl])-NH2 [peptide of SEQ ID NO: 149] . State its measured EMax, OVCAR 5 cells (cAMP).
Output: 87

Input: Consider the binder Ac-ELEGREKVRAAI[Aib][Aib]EG[Nle]STWS[Aib]RKK([PEG2′-γGlu-γGlu-Palmitoyl])-NH2 [peptide of SEQ ID NO: 54] . State its measured EMax, OVCAR 5 cells (cAMP).
Output: 98

Input: Consider the binder Ac-LEGREKVRAK(Ac)I[Aib][Aib]EG[Nle]STWX[Aib]RKK(Ac)[PEG12]K([γGlu-γGlu-γGlu-Stearoyl])-NH2 (not fully specified (some residues); printed as Ac-L-E-G-R-E-K-V-R-A-K(Ac)-I-Aib-Aib-E-G-Nle-S-T-W-Mse-Aib-R-K-K(Ac)-PEG12-K(gE-gE-gE-Stea)-NH2) [peptide of SEQ ID NO: 41] . State its measured EMax, OVCAR 5 cells (cAMP).
Output: 87

Input: Consider the binder Ac-LEGREKVRAK(Ac)I[Aib][Aib]EG[Nle]STWS[Aib]RKK(Ac)K([PEG2′-PEG2′-γGlu-γGlu-γGlu-Palmitoyl])-NH2 [peptide of SEQ ID NO: 62] . State its measured EMax, OVCAR 5 cells (cAMP).
Output: 87

Input: Consider the binder Ac-LEGREKVRAQI[Aib][Aib]EG[Nle]STWS[Aib]RKK([PEG2″-PEG2″-γGlu-γGlu-PEG2″-γGlu-Stearoyl])-NH2 [peptide of SEQ ID NO: 100] . State its measured EMax, OVCAR 5 cells (cAMP).
Output: 90

Input: Consider the binder Ac-LEGREKVRAK(Ac)I[Aib][Aib]EGK(Ac)STWS[Aib]RKKK([PEG2′-PEG2′-γGlu-γGlu-γGlu-Palmitoyl])-NH2 [peptide of SEQ ID NO: 61] . State its measured EMax, OVCAR 5 cells (cAMP).
Output: 93

Input: Consider the binder Ac-LEGREKVRAQI[Aib][Aib]EG[Nle]STWS[Aib]RKK(Ac)[PEG2′][PEG2′][PEG2′][γGlu][γGlu]K([γGlu-Palmitoyl])-NH2 [peptide of SEQ ID NO: 119] . State its measured EMax, OVCAR 5 cells (cAMP).
Output: 83
